Origin of values: ChEMBL document CHEMBL1124407

molecular target: Gastrin/cholecystokinin type B receptor (Rattus norvegicus) (UniProt P30553); experiment: Activity in vivo gastrin-induced acid secretion in rats; format: functional, organism-based
Sequence (P30553 whole entry): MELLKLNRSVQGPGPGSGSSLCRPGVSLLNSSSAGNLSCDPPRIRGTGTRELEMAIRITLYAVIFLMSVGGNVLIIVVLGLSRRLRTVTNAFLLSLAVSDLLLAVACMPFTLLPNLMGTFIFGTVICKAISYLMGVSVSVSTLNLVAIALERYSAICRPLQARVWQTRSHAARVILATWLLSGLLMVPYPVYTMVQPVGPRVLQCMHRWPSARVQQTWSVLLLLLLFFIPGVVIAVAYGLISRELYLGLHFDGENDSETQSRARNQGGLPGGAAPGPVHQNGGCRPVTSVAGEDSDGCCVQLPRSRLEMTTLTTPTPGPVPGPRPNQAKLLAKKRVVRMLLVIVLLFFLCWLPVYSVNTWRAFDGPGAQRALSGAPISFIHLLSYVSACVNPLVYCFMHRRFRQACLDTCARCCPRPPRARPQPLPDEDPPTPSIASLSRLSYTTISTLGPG
Test readout: ED50 (mg/kg)

(a) CC(C)CC(NC(=O)[C@@H](Cc1c[nH]c2ccccc12)NC(=O)OC(C)(C)C)C(=O)N[C@H](CC(=O)O)CC(=O)NCc1ccccc1 (stereo in doubt)
(b) CC(C)C[C@@H](CC(=O)N[C@@H](CC(=O)O)C(=O)N[C@@H](Cc1ccccc1)C(N)=O)NC(=O)[C@H](Cc1c[nH]c2ccccc12)NC(=O)OC(C)(C)C
(c) CC(C)CC(CC(=O)NC(CC(=O)O)C(=O)NCCc1ccccc1)NC(=O)C(Cc1c[nH]c2ccccc12)NC(=O)OC(C)(C)C (stereo not drawn)
Lookup: Arrange these molecules by their ED50, starting with the largest number. Reply format: the labels, ordered as requested.
Found: b, a, c
